test: Solubility of compound in water at 0.1 to 10 ug/ml by UV spectrophotometry relative to scutellarein; format: physicochemical; settings: buffer
Item-by-item account of fold change (FC)

Field: example entries. Status: answers known.
Exercise: Requested field: fold change (FC). Item: `CN(C)C(=O)Oc1ccc(-c2cc(=O)c3c(O)c(O)c(O)cc3o2)cc1`
Key: 1.4

Exercise: Next entry: `O=c1cc(-c2ccc(OCCN3CCOCC3)cc2)oc2cc(O)c(O)c(O)c12`
Key: 1.37

Exercise: Next entry: `CN(C)CCOc1ccc(-c2cc(=O)c3c(O)c(O)c(O)cc3o2)cc1`
Key: 1.35

Exercise: Next entry: `CC(C)N(C(=O)Oc1ccc(-c2cc(=O)c3c(O)c(O)c(O)cc3o2)cc1)C(C)C`
Key: 1.27

Exercise: Next entry: `O=C(COc1ccc(-c2cc(=O)c3c(O)c(O)c(O)cc3o2)cc1)N1CCOCC1`
Key: 1.38

Exercise: Next entry: `O=c1cc(-c2ccc(OCCCN3CCOCC3)cc2)oc2cc(O)c(O)c(O)c12`
Key: 1.25

Exercise: Next entry: `CCN(CC)C(=O)COc1ccc(-c2cc(=O)c3c(O)c(O)c(O)cc3o2)cc1`
Key: 1.31

Exercise: Next entry: `CN1CCN(C(=O)Oc2ccc(-c3cc(=O)c4c(O)c(O)c(O)cc4o3)cc2)CC1`
Key: 2.2

Exercise: Next entry: O=c1cc(-c2ccc(O)cc2)oc2cc(O)c(O)c(O)c12 [SCUTELLAREIN]
Key: 1

Exercise: Next entry: `CN(C)CCCOc1ccc(-c2cc(=O)c3c(O)c(O)c(O)cc3o2)cc1`
Key: 1.24

More entries:
Exercise: Requested field: fold change (FC). Item: `CCN(CC)C(=O)Oc1ccc(-c2cc(=O)c3c(O)c(O)c(O)cc3o2)cc1`
Key: 1.35

Exercise: Next entry: `CCN(CC)CCOc1ccc(-c2cc(=O)c3c(O)c(O)c(O)cc3o2)cc1`
Key: 1.27

Exercise: Next entry: `O=C(Oc1ccc(-c2cc(=O)c3c(O)c(O)c(O)cc3o2)cc1)N1CCOCC1`
Key: 2.34

Exercise: Next entry: `CN(C)C(=O)COc1ccc(-c2cc(=O)c3c(O)c(O)c(O)cc3o2)cc1`
Key: 1.36

###

assay: Solubility of compound in water at 0.1 to 10 ug/ml by UV spectrophotometry; format: physicochemical
Would you please tag the item True when its solubility is 9 µg/mL or above, and False when it is below?

Some entries whose results are on file:
Exercise: Hello, I need to know if `CN(C)CCOc1ccc(-c2cc(=O)c3c(O)c(O)c(O)cc3o2)cc1` has measured solubility not below 9 µg/mL. Thanks!
Key: True

Exercise: Next entry: `CCN(CC)CCOc1ccc(-c2cc(=O)c3c(O)c(O)c(O)cc3o2)cc1`
Key: False

Exercise: Next entry: `O=c1cc(-c2ccc(OCCCN3CCOCC3)cc2)oc2cc(O)c(O)c(O)c12`
Key: False

More entries:
Exercise: Hello, I need to know if `O=c1cc(-c2ccc(OCCN3CCOCC3)cc2)oc2cc(O)c(O)c(O)c12` has measured solubility not below 9 µg/mL. Thanks!
Key: True

Exercise: Next entry: `CN1CCN(C(=O)Oc2ccc(-c3cc(=O)c4c(O)c(O)c(O)cc4o3)cc2)CC1`
Key: True

Exercise: Next entry: `CN(C)CCCOc1ccc(-c2cc(=O)c3c(O)c(O)c(O)cc3o2)cc1`
Key: False

Exercise: Next entry: `O=C(COc1ccc(-c2cc(=O)c3c(O)c(O)c(O)cc3o2)cc1)N1CCOCC1`
Key: True

Exercise: Next entry: `CN(C)C(=O)COc1ccc(-c2cc(=O)c3c(O)c(O)c(O)cc3o2)cc1`
Key: True

Exercise: Next entry: `O=C(Oc1ccc(-c2cc(=O)c3c(O)c(O)c(O)cc3o2)cc1)N1CCOCC1`
Key: True

Exercise: Next entry: `CC(C)N(C(=O)Oc1ccc(-c2cc(=O)c3c(O)c(O)c(O)cc3o2)cc1)C(C)C`
Key: False

Exercise: Next entry: `CN(C)C(=O)Oc1ccc(-c2cc(=O)c3c(O)c(O)c(O)cc3o2)cc1`
Key: True
